# credit: PubChem BioAssay (NCATS)

system: CP211; assay: qHTS profiling for inhibitors of Plasmodium falciparum proliferation (AID 504749); note: nearly all actives have a fitted effect of over 60% in size; conditions: P. falciparum in erythrocytes, SYBR Green DNA, 72 h; series mostly up to 28.7 µM
Inconclusive results are not listed. Active and inactive are the calls of the source. Calls come from the whole dose curve; as a rule, active = well fitted inhibition curve with a large enough effect; inconclusive = small, poorly fitted or top-dose-only effect; inactive = flat fitted curve, though single readings scatter.
Allowed answers: y for active, n for inactive

COMPOUND	GROUP
O=C(O)CP(=O)(O)O	n
OC(CCN1CCCCC1)(c1ccccc1)C1CCCCC1 (stereo unspecified)	n
COCC(=O)O[C@]1(CCN(C)CCCc2nc3ccccc3[nH]2)CCc2cc(F)ccc2[C@@H]1C(C)C	y
CCCCCN(CCCCC)C(=O)C(CCC(=O)O)NC(=O)c1ccc(Cl)c(Cl)c1 (stereo unspecified)	n
O=C1CC2(CCCC2)CC(=O)N1CCCCN1CCN(c2ncccn2)CC1	n
CCN(CC)CCOCCOC(=O)C1(c2ccccc2)CCCC1	n
CCCCOCCOCCOCc1cc2c(cc1CCC)OCO2	n
CCN(CC)CCCN(c1ccccc1)C1Cc2ccccc2C1	y

// param item: "CCOC(=O)c1cnc2c(cnn2CC)c1NN=C(C)C" ; yields the recorded call
n

Ok, now "COC(=O)[C@@H](N)Cc1ccc(O)c(O)c1"
n

Ok, now "CC(=O)Oc1cc(C(C)C)c(OCCN(C)C)cc1C"
n

====

assay: Cell Viability - Hek293 (AID 427); conditions: qHTS;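 note: potency is the fitted concentration of half-maximal effect; cells exposed to compound for 40 hours at 37 °C before reading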
Results filed as inconclusive are left out. Activity calls are given as the source filed them.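 The calls were made as follows: active = compounds whose dose-response curve shows a full or clear partial loss of cell viability, called from curve shape rather than a numeric limit; inconclusive = weak partial curves or an effect only at the top dose; inactive = no dose-dependent loss of viability.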
Allowed answers: Y (active), N (inactive)

As a guide, the following entries are already answered.
COMPOUND_STRUCTURE_STRING	GROUP
NC(=O)N1c2ccccc2C=Cc2ccccc21	N
Nc1ncn([C@@H]2O[C@H](CO)[C@@H](O)[C@H]2O)c(=O)n1	Y
NC(=Nc1ccccc1)Nc1ccccc1	N

// param item: "COc1cc(Cc2cnc(N)nc2N)cc(OC)c1OC" ; yields the recorded call
N

Ok, now "CCCCNC(=O)NS(=O)(=O)c1ccc(C)cc1"
N

Ok, now "COc1ccc(CN(CCN(C)C)c2ccccn2)cc1"
N

Ok, now "O=c1[nH]c(=O)n([C@H]2C[C@H](O)[C@@H](CO)O2)cc1Br"
N

Ok, now "CCCCOCCOCCOCc1cc2c(cc1CCC)OCO2"
N

====

assay: qHTS profiling for inhibitors of Plasmodium falciparum proliferation (AID 504749); note: nearly all actives have a fitted effect of over 60% in size;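 for activity, negative = inhibition: 0% = DMSO vehicle and full inhibition = artemisinin control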; settings: P. falciparum in erythrocytes, SYBR Green DNA, 72 h; at 28.7 µM (top of the series); parasite line B
Inconclusive results are not listed.
PROPERTY_MEASURED: activity, negative = inhibition (%)
Response body: numeric value in %, unit text excluded.

Use the examples below as a reference point.
MOLECULE	activity, negative = inhibition (%)
Nc1nc(N)c2nc(-c3ccccc3)c(N)nc2n1	5.12
CSc1ccc(C(=O)c2[nH]c(=O)[nH]c2C)cc1	9.86
CC(N=C(NC#N)Nc1ccncc1)C(C)(C)C (configuration not stated)	-7.16
CCCCOCCOCCOCc1cc2c(cc1CCC)OCO2	5.71
CNC1(C)C2CCC(C2)C1(C)C (configuration not stated)	5.34
CCN1CCc2nc(N)oc2CC1	1.64
Cc1nc2ccccn2c(=O)c1CCN1CCC(C(=O)c2ccc(F)cc2)CC1	11.2
Cc1nc2c([nH]1)c(=O)n(C)c(=O)n2Cc1ccco1	-2.06
COc1ccc(CN(CCN(C)C)c2ccccn2)cc1	-2.95
CCc1cccc(N(C)C(N)=Nc2cccc3ccccc23)c1	-10.7

Given the entry "CCn1cc(C(=O)O)c(=O)c2cc3c(cc21)OCO3" , report its measured activity, negative = inhibition.
-3.36

Ok, now "CCCN(CCC)CCc1cccc2c1CC(=O)N2"
-8.71

Ok, now "Cc1ccc(=O)n(-c2ccccc2)c1"
18.6

Ok, now "CCCCNC(=O)NS(=O)(=O)c1ccc(C)cc1"
0.192

Ok, now "c1cnc(N2CCN(Cc3ccc4c(c3)OCO4)CC2)nc1"
17.3

Ok, now "C#CCN(C)CCCOc1ccc(Cl)cc1Cl"
12.2

Ok, now "NC/C=C/C(=O)O"
11.1

====

test system: MCC-26; assay: qHTS assay to identify novel small-molecules to repurpose for Merkel cell carcinoma treatment (AID 1296009); details: MCC and control cell lines, CellTiter-Glo viability, 72 h; series mostly up to 46 µM; note: % is set by controls: 0 for no effect and ±100 for the full control effect; nearly all actives have a fitted effect of over 60% in size
Results filed as inconclusive are left out. Active and inactive are the calls of the source. Calls come from the whole dose curve; as a rule, active = well fitted inhibition curve with a large enough effect; inconclusive = small, poorly fitted or top-dose-only effect; inactive = flat fitted curve, though single readings scatter.
PROPERTY_MEASURED: outcome

Use the examples below as a reference point.
MOLECULE	RESULT
Cc1ccc(S(=O)(=O)NC(=O)NN2CCCCCC2)cc1	inactive
CSc1ccc(C(=O)c2[nH]c(=O)[nH]c2C)cc1	inactive
OCCN1CCN(CCCN2c3ccccc3C=Cc3ccccc32)CC1	inactive
CCOC(=O)C1=C(C)NC(C)=C(C(=O)OC)C1c1cccc([N+](=O)[O-])c1 (stereo unspecified)	inactive
Nc1nc(N)c2nc(-c3ccccc3)c(N)nc2n1	inactive

Next, consider the following molecule.
Given the entry "OCCN1CCN(CC/C=C2/c3ccccc3Sc3ccc(C(F)(F)F)cc32)CC1" , report its measured outcome.
inactive

====

molecular target: Chromobox protein homolog 1 (Homo sapiens); assay: qHTS Validation Assay for Inhibitors of HP1-beta Chromodomain Interactions with Methylated Histone Tails (AID 488953); conditions: HP1-beta chromodomain / methylated histone peptide binding assay; series mostly up to 114 µM; note: nearly all actives have a fitted effect of over 50% in size
Inconclusive results are not listed. Activity calls are given as the source filed them. Calls come from the whole dose curve; as a rule, active = well fitted inhibition curve with a large enough effect; inconclusive = small, poorly fitted or top-dose-only effect; inactive = no such curve, though single readings can be large or run the other way.
Allowed answers: active, inactive

As a guide, the following entries are already answered.
COMPOUND	GROUP
Cc1ccc(S(=O)(=O)NC(=O)NN2CCCCCC2)cc1	inactive
CCCOc1ccccc1-c1nc2n[nH]nc2c(=O)[nH]1	inactive
CCCCNc1c(C(=O)OCC)c(C)nc2c1cnn2CC	inactive
C[N+](C)(C)CCOC(N)=O	inactive
COc1ccc(CN(CCN(C)C)c2ccccn2)cc1	inactive
CCN(CC)CCNC(=O)c1ccc(NC(C)=O)cc1	inactive
NC(N)=NC(=O)Cc1c(Cl)cccc1Cl	inactive
Cc1nc2ccccn2c(=O)c1CCN1CCC(C(=O)c2ccc(F)cc2)CC1	inactive
CN=C(NC#N)NCCSCc1nc[nH]c1C	inactive
NC(N)=N/N=C/c1c(Cl)cccc1Cl	inactive

// param item: C=CCc1ccccc1OCC(O)CNC(C)C (centres undefined) ; yields the recorded call
inactive

Ok, now "C[N+](C)(C)CCOC(=O)CCC(=O)OCC[N+](C)(C)C"
inactive

Ok, now COc1ccc(CCN(C)CCCC(C#N)(c2cc(OC)c(OC)c(OC)c2)C(C)C)cc1OC (centres undefined)
inactive

Ok, now "CN(C)CCN(Cc1cccs1)c1ccccn1"
inactive

Ok, now Nc1c2c(nc3ccccc13)CCCC2O (centres undefined)
inactive

Ok, now "CCn1nc(C(=O)O)c(=O)c2cc3c(cc21)OCO3"
inactive

Ok, now "COCCCC/C(=N\OCCN)c1ccc(C(F)(F)F)cc1"
inactive

Ok, now "CC(=O)Nc1nnc(S(N)(=O)=O)s1"
inactive

Ok, now "C[C@]12CCC(=O)C=C1CC[C@@H]1[C@@H]2CC[C@@]2(C)[C@H]1CC[C@]2(O)C(=O)CO"
inactive

Ok, now COCCc1ccc(OCC(O)CNC(C)C)cc1 (centres undefined)
inactive

Ok, now "Cc1nc2c([nH]1)c(=O)n(C)c(=O)n2Cc1ccco1"
inactive

Ok, now Cc1cccc(C)c1NC(=O)C(C)N (centres undefined)
inactive

Ok, now "Cc1ccc(/C(=C\CN2CCCC2)c2ccccn2)cc1"
inactive

Ok, now "O=C(O)CN(CCOCCOCCN(CC(=O)O)CC(=O)O)CC(=O)O"
inactive

Ok, now "CC1=NS(=O)(=O)c2cc(Cl)ccc2N1"
inactive

Ok, now "Nc1ncn([C@@H]2O[C@H](CO)[C@@H](O)[C@H]2O)c(=O)n1"
inactive

Ok, now "C[C@]12C=CC(=O)C=C1CC[C@H]1[C@@H]3C[C@@H](O)[C@](O)(C(=O)CO)[C@@]3(C)C[C@H](O)[C@@]12F"
inactive

Ok, now COC(=O)C1=C(C)NC(C)=C(C(=O)OC(C)(C)CN(C)CCC(c2ccccc2)c2ccccc2)C1c1cccc([N+](=O)[O-])c1 (centres undefined)
active

Ok, now CCOC(=O)C1=C(C)NC(C)=C(C(=O)OC)C1c1cccc(Cl)c1Cl (centres undefined)
inactive

====

test system: W2; test: qHTS profiling for inhibitors of Plasmodium falciparum proliferation (AID 504749); note: nearly all actives have a fitted effect of over 60% in size; note: potency is the fitted concentration of half-maximal effect; settings: P. falciparum in erythrocytes, SYBR Green DNA, 72 h; series mostly up to 28.7 µM
Records with an inconclusive call do not appear. Activity calls are given as the source filed them. Calls follow the shape of the dose curve; as a rule, active = well fitted inhibition curve with a large enough effect; inconclusive = small, poorly fitted or top-dose-only effect; inactive = flat fitted curve, though single readings scatter.
PROPERTY_MEASURED: Potency

Use the examples below as a reference point.
COMPOUND	Potency
NC(=O)N1c2ccccc2C=Cc2ccccc21	inactive
OC(CCN1CCCCC1)(c1ccccc1)C1CCCCC1 (stereo not drawn)	6.01 µM (active)
CCN(CC)CCNC(=O)c1ccc(NC(C)=O)cc1	inactive
CCN(Cc1ccncc1)C(=O)C(CO)c1ccccc1 (stereo not drawn)	inactive
C[N+](C)(C)CCOC(N)=O	inactive
CCN1CCc2nc(N)oc2CC1	inactive
c1cnc(N2CCN(Cc3ccc4c(c3)OCO4)CC2)nc1	inactive
Brc1c(NC2=NCCN2)ccc2nccnc12	5.36 µM (active)

Given the entry NC(Cc1ccc(Cl)cc1)C(=O)O (stereo not drawn) , report its measured Potency.
inactive

Ok, now "CN(C)CCN(Cc1cccs1)c1ccccn1"
1.9 µM (active)

Ok, now "Cc1scc2c1N(C(=O)CN1CCN(C)CC1)c1ccccc1NC2=O"
inactive

Ok, now "COc1cc(C(=O)OCCCN2CCCN(CCCOC(=O)c3cc(OC)c(OC)c(OC)c3)CC2)cc(OC)c1OC"
3.01 µM (active)

Ok, now "CC(=O)[C@@]1(O)CC[C@H]2[C@@H]3CCC4=CC(=O)CC[C@]4(C)[C@H]3CC[C@@]21C"
inactive

Ok, now "CN(C)CC[C@@H](c1ccc(Br)cc1)c1ccccn1"
0.849 µM (active)

Ok, now "CC(=O)OCC1=C(C(=O)O)N2C(=O)[C@@H](NC(=O)Cc3cccs3)[C@H]2SC1"
inactive

Ok, now "C[C@]12CCC(=O)C=C1CC[C@@H]1[C@@H]2CC[C@@]2(C)[C@H]1CC[C@]2(O)C(=O)CO"
inactive

Ok, now "Nc1ncn([C@@H]2O[C@H](CO)[C@@H](O)[C@H]2O)c(=O)n1"
inactive

Ok, now "NC/C=C/C(=O)O"
inactive

Ok, now "COC(=O)[C@H]1[C@H]2C[C@@H]3c4[nH]c5cc(OC)ccc5c4CCN3C[C@H]2C[C@@H](OC(=O)c2cc(OC)c(OC)c(OC)c2)[C@@H]1OC"
3.79 µM (active)

Ok, now "CN(C)C(=O)Oc1cccc([N+](C)(C)C)c1"
inactive

Ok, now "O=C1NCN(c2ccccc2)C12CCN(CCCC(c1ccc(F)cc1)c1ccc(F)cc1)CC2"
2.39 µM (active)

Ok, now Nc1c2c(nc3ccccc13)CCCC2O (stereo not drawn)
inactive

Ok, now "CN1CCN(CC(=O)N2c3ccccc3C(=O)Nc3cccnc32)CC1"
inactive
